Target: Fes (UniProt P07332)
Sequence (P07332 whole entry, looked up): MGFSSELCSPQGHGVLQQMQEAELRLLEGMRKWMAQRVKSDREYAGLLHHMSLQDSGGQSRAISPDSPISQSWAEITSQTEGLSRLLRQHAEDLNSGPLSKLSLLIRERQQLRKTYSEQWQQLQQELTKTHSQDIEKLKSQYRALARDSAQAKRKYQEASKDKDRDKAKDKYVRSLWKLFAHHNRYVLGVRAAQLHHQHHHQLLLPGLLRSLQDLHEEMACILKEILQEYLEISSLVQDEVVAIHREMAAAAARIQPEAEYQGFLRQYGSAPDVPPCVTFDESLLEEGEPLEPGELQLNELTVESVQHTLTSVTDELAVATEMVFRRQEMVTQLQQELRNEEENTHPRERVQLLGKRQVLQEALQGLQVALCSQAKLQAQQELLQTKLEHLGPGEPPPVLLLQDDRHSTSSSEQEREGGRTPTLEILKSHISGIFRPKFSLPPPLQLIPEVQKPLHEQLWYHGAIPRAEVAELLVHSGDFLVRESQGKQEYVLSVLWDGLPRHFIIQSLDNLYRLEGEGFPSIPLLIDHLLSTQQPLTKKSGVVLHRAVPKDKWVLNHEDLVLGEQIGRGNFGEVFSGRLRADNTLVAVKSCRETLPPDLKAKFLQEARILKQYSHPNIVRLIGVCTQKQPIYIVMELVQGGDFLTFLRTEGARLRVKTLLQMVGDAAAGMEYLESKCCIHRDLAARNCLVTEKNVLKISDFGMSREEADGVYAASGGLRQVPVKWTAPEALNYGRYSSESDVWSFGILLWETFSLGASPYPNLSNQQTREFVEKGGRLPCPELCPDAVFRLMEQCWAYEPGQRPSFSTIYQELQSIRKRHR
Experiment: phosphorylation enrichment, bacterial display (enrichment ratio); higher = better substrate or ligand; peptides without Tyr show the background;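 note: 11-residue human phosphosite peptides and single-mutation variants displayed on the E. coli surface, counted by deep sequencing, each peptide's frequency after selection divided by its frequency in the unselected input library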;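 note: frequency after pTyr selection over input frequency; kinase dosed for 20-30% of maximal phosphorylation in three min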
In this section, each of the sequences is paired with its reported phosphorylation enrichment.
quantity_kind: phosphorylation enrichment

[[record]]
seq_string = "SDVCMYRKNIF [SYNE2_Y570_YF]"
quantity_kind = "phosphorylation enrichment"
result = 1.12

[[record]]
seq_string = "RARPPYTVAAD [ANKZF1_Y572]"
quantity_kind = "phosphorylation enrichment"
result = 0.591

[[record]]
seq_string = "TWSPKYTLRSH [STRN3_Y474_N471S]"
quantity_kind = "phosphorylation enrichment"
result = 0.87

[[record]]
seq_string = "VDASFCGGRGV [ANTXR2_Y381_Y381C_YF]"
quantity_kind = "phosphorylation enrichment"
result = 1.11

[[record]]
seq_string = "DYYDLYGGKKF [PTPN11_Y66_E69K]"
quantity_kind = "phosphorylation enrichment"
result = 0.825

[[record]]
seq_string = "YQLENCCNGGG [INS_Y108_Y108C]"
quantity_kind = "phosphorylation enrichment"
result = 0.903

[[record]]
seq_string = "VQVAYYTMMMN [SPATA17_Y84]"
quantity_kind = "phosphorylation enrichment"
result = 1.54

[[record]]
seq_string = "LAGRFYALKSM [CKB_Y174_YF]"
quantity_kind = "phosphorylation enrichment"
result = 1.61

[[record]]
seq_string = "RGVTRYIFNRE [HLA-DQB1_Y62_Y58G_YF]"
quantity_kind = "phosphorylation enrichment"
result = 1.85

[[record]]
seq_string = "ADIETYLLEKS [MYH7_Y266]"
quantity_kind = "phosphorylation enrichment"
result = 1.12

[[record]]
seq_string = "KLQQWYREHRS [GPI_Y17]"
quantity_kind = "phosphorylation enrichment"
result = 0.613

[[record]]
seq_string = "KVQVSYKGETK [HSPA1A_Y107]"
quantity_kind = "phosphorylation enrichment"
result = 0.511

[[record]]
seq_string = "PSSNLYYRWLT [CNGA3_Y168]"
quantity_kind = "phosphorylation enrichment"
result = 1.4

[[record]]
seq_string = "PFWKLYESVKK [MKI67_Y241]"
quantity_kind = "phosphorylation enrichment"
result = 1.39

